Data credit: ChEMBL document CHEMBL1153346

ASSAY: Selectivity index, ratio of IC50 for rat L6 cells to IC50 for Leishmania donovani MHOM/SD/62/1S-CL2D axenic amastigotes
Type: toxicity, cell-based
DETAILS: read-out: Ratio IC50
just bin them by selectivity ratio: LOW: < 3; MEDIUM: ≥ 3 and < 7; HIGH: ≥ 7

- ENTRY_SMILES: "Cl.c1cc(C2=NCCN2)ccc1OCCCCCOc1ccc(C2=NCCN2)cc1"
  ASSIGNED_LABEL: "HIGH"
- ENTRY_SMILES: "N=C(N)c1ccc(OCCCCCOc2ccc(N)cc2)cc1"
  ASSIGNED_LABEL: "LOW"
- ENTRY_SMILES: "CC(C)NC(=N)c1cccc(OCCCCCCOc2cccc(C(=N)NC(C)C)c2)c1"
  ASSIGNED_LABEL: "HIGH"
- ENTRY_SMILES: "Cl.Cl.N=C(N)c1ccc(OCCCOc2ccc(C(=N)N)cc2Br)c(Br)c1"
  ASSIGNED_LABEL: "MEDIUM"
- ENTRY_SMILES: "Cl.Cl.N=C(N)c1ccc(OCCCCCOc2ccc(C(=N)N)c(F)c2)cc1F"
  ASSIGNED_LABEL: "MEDIUM"
- ENTRY_SMILES: "Cl.Cl.c1cc(C2=NCCN2)ccc1NCCCCCNc1ccc(C2=NCCN2)cc1"
  ASSIGNED_LABEL: "HIGH"
- ENTRY_SMILES: "Cl.N=C(N)c1ccc(NCCCCCNc2ccc(C(=N)N)cc2)cc1"
  ASSIGNED_LABEL: "LOW"
- ENTRY_SMILES: "Cl.Cl.N=C(N)c1ccc(SCCCCCSc2ccc(C(=N)N)cc2)cc1"
  ASSIGNED_LABEL: "MEDIUM"
- ENTRY_SMILES: "CC(C)NC(=N)c1ccc(OCCCCCOc2ccc(C(=N)NC(C)C)c(O)c2)cc1O"
  ASSIGNED_LABEL: "LOW"
- ENTRY_SMILES: "N=C(N)c1ccc(OCCCOc2ccc(C(=N)N)cc2[N+](=O)[O-])c([N+](=O)[O-])c1"
  ASSIGNED_LABEL: "LOW"
- ENTRY_SMILES: "CC(C)NC(=N)c1ccc(OCCCOc2ccc(C(=N)NC(C)C)cc2)cc1.Cl.Cl"
  ASSIGNED_LABEL: "HIGH"
- ENTRY_SMILES: "COc1cc(C(=N)N)ccc1OCCCOc1ccc(C(=N)N)cc1OC.Cl.Cl"
  ASSIGNED_LABEL: "HIGH"
